Give stoichiometry N for every item shown.
- ASSAYED SYSTEM: microtubule-associated protein light chain 3 beta (LC3B), wild type, full-length 1-125 (human, UniProt Q9GZQ8 1-120)
- METHOD SUMMARY: ITC; MicroCal iTC200, 25 °C; proteins 0.25 mmol/L and peptides 3 mmol/L, dialyzed against buffer B (20 mmol/L Tris-HCl, 200 mmol/L NaCl, 1 mmol/L EDTA, pH 8.0); single binding site model
- EXPERIMENTAL SETUP: both partners purified
Non-standard residues stand in square brackets, D forms with d. No end group written: not given here. pY = N[C@@H](Cc1ccc(OP(=O)(O)O)cc1)C(=O)O; pS = N[C@@H](COP(=O)(O)O)C(=O)O

Recorded stoichiometry N of DYESDDDSYEVLDLTE (FUNDC1 (Fun14 domain-containing protein 1), LIR and flanking residues 10-25; also called unphosphorylated FUNDC1 peptide; FUNDC1 peptide; source: synthetic peptide (GL Biochem, Shanghai)) [FUNDC1 LIR peptide 10-25, unphosphorylated] , please.
1.02

Requested read-out: stoichiometry N. Entry: DYESDDDS[pY]EVLDLTE (also called FUNDC1 pY18; pY18 peptide; source: synthetic peptide (GL Biochem, Shanghai)) [FUNDC1 LIR peptide 10-25 phosphorylated at Tyr18]
1.16

Data request, read-out stoichiometry N, for DYE[pS]DDDSYEVLDLTE (also called FUNDC1 pS13; pS13 peptide; source: synthetic peptide (GL Biochem, Shanghai)) [FUNDC1 LIR peptide 10-25 phosphorylated at Ser13]
1.13

Reported stoichiometry N, binder DYESDDD[pS]YEVLDLTE (also called FUNDC1 pS17; FUNDC1 pS17 peptide; source: synthetic peptide (GL Biochem, Shanghai)) [FUNDC1 LIR peptide 10-25 phosphorylated at Ser17] : ____
1
